- ASSAY_TARGET: Cav2.1 (Homo sapiens, UniProt O00555)
- Construct: host or cells: HEK293 or CHO
- Sequence (P54289 25-1103): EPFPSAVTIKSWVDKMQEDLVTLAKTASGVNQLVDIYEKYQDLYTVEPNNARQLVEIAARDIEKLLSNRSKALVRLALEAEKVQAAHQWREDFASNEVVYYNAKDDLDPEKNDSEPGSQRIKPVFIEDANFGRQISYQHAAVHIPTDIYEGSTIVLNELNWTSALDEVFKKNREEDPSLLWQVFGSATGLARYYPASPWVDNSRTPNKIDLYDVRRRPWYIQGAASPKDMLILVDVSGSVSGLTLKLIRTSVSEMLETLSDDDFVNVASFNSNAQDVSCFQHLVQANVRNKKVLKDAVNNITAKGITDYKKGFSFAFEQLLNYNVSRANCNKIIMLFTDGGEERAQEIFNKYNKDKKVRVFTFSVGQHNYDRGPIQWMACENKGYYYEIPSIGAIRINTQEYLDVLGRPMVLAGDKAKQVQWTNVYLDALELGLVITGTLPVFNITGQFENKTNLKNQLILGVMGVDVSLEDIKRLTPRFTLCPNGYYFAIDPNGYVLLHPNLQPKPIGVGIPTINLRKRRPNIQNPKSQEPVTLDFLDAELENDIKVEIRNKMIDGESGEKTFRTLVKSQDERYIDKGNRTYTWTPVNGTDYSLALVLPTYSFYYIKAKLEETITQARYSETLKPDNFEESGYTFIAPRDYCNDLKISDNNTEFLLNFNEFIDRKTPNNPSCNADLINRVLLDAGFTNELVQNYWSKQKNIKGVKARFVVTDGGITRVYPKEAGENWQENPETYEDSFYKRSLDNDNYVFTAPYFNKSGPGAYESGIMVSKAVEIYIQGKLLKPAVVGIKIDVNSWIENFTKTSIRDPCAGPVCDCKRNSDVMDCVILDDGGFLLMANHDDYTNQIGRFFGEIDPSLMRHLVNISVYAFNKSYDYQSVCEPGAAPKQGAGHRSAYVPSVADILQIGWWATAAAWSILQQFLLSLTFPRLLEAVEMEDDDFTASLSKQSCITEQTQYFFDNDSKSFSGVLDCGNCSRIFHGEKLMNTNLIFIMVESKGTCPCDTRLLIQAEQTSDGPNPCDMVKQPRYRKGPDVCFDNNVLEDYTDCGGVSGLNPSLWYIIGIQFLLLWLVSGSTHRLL
- Sequence (O00555 whole entry): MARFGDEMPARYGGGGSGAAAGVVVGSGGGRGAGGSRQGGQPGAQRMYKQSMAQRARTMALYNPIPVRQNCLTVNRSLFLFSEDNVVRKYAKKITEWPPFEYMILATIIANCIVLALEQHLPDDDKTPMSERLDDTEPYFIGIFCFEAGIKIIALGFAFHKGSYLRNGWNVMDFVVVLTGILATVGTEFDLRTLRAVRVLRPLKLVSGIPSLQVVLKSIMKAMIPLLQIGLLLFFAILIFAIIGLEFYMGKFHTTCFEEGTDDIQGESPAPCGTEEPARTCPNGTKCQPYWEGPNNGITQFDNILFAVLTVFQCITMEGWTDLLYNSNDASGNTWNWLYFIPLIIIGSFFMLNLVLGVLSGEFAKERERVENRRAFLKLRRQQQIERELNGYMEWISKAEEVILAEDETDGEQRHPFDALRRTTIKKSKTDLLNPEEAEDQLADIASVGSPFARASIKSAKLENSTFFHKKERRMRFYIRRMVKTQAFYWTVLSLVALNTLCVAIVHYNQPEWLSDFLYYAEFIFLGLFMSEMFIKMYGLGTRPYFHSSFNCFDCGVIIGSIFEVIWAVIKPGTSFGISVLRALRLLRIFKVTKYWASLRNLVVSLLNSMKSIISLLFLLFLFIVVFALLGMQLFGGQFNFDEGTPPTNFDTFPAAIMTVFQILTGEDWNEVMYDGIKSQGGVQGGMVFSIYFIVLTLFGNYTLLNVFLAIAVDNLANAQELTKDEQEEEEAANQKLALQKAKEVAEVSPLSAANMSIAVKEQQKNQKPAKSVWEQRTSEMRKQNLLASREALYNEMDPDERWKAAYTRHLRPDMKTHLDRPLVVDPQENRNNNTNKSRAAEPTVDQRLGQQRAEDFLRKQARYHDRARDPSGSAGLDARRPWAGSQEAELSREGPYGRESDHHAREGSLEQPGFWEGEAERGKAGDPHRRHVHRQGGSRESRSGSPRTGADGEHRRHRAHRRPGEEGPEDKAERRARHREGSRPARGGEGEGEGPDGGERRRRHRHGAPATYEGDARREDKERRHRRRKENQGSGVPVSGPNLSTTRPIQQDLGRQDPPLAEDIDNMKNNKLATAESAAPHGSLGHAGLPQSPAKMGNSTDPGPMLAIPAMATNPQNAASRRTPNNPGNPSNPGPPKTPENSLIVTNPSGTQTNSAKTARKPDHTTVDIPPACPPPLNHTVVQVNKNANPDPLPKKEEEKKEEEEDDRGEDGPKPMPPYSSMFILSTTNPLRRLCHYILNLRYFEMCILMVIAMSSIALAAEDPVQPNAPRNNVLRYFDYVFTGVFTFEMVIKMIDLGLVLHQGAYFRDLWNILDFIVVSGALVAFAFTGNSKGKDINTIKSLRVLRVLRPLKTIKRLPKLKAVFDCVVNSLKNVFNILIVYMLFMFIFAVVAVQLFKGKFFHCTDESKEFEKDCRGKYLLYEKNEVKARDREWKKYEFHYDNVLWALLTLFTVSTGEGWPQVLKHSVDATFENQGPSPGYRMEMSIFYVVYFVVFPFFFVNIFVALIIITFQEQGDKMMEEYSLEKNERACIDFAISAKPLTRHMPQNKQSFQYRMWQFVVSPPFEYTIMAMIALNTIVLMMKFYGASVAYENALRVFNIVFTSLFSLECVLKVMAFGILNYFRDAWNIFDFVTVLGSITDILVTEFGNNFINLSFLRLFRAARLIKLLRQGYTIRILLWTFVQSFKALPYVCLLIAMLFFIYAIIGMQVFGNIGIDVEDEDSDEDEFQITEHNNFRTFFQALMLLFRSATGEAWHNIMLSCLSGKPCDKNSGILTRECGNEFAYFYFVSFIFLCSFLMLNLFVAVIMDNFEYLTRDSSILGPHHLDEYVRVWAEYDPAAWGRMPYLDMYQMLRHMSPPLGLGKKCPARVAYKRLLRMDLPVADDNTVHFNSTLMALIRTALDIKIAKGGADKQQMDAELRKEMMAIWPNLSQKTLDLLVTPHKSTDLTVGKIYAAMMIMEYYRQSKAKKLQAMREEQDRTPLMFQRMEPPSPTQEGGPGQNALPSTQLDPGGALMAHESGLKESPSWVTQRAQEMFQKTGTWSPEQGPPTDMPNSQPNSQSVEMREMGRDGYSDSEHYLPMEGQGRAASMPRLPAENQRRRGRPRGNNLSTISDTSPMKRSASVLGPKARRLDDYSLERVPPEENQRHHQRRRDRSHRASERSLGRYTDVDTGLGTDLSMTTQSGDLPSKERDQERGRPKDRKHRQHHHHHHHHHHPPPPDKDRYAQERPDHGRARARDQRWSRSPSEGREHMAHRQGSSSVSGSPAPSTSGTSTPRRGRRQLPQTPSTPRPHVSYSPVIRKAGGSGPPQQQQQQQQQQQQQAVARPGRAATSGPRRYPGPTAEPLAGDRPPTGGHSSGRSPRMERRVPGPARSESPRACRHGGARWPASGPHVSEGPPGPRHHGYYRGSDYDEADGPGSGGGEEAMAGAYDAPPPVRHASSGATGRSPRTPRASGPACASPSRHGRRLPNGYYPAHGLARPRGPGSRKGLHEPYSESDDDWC
- METHOD: cell-based
- RECORDED_CONDITIONS: peptide at 0.2 μM; 100% = no change, <100% = inhibition
QUANTITY_MEASURED: Activity of Cav2.1 with peptide, expressed as a percentage of the reference compound (%)

SUBSTANCE	RESULT
24 (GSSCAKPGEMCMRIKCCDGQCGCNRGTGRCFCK) [compound 24]	92
25 (GSACLAEYQKCEGSTVPCCPGLSCSAGRFRKTKLCTK) [compound 25]	89
27 (GSACQFWSCNSSCISRGYRQGYCWGIQYKYCQCQ) [compound 27]	108
19 (GSQFTDVKCTGSKQCWPVCKQMFGKPNGKCMNGKCRCYS) [compound 19]	106
34 (GGYSRCQLQGFNCVVRSYGLPTIPCCRGLTCRSYFPGSTYGRCQRY) [compound 34]	86
18 (GSNCAGYMRECKEKLCCSGYVCSSRWKWCVLPAPWRR) [compound 18]	97
20 (GSQIDTNVKCSGSSKCVKICIDRYNTRGAKCINGRCTCYP) [compound 20]	100
12 (GSNFKVEGACSKPCRKYCIDKGARNGKCINGRCHCYY) [compound 12]	109
23 (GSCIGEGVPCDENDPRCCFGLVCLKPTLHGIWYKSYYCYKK) [compound 23]	95
15 (GSAVCNLKRCQLSCRSLGLLGKCIGDKCECVKHG) [compound 15]	106
9 (GSGCFGYKCDYYKGCCSGYVCSPTWKWCVRPGPGR) [compound 9]	111
29 (GSVFINVKCRGSPECLPKCKEAIGKSAGKCMNGKCKCYP) [compound 29]	100
14 (GSDRDSCIDKSRCSKYGYYQECQDCCKKAGHNGGTCMFFKCKCA) [compound 14]	118
13 (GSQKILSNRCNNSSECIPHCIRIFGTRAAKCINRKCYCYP) [compound 13]	109
39 (GSGVPTDVKCRGSPQCIQPCKDAGMRFGKCMNGKCHCTPK) [compound 39]	96
38 (GSGIGDPVTCLKSGAICHPVFCPRRYKQIGTCGLPGTKCCKKP) [compound 38]	95
3 (GSSEKDCIKHLQRCRENKDCCSKKCSRRGTNPEKRCR) [compound 3]	102
11 (GSGDCLPHLKRCKENNDCCSKKCKRRGANPEKRCR) [compound 11]	104
4 (GSSCAKPRENCNRMNILCCRGECVCPTFGDCFCYGD) [compound 4]	111

====

- ASSAY_TARGET: NR2A (Homo sapiens, UniProt Q12879)
- Construct: host or cells: HEK293 or CHO
- METHOD: Ion channel panel (IonWorks Barracuda): NR2A
- Type: cell-based
- RECORDED_CONDITIONS: peptide at 0.2 μM; 100% = no change, <100% = inhibition
The following substances are shown together with reported Activity of NR2A with peptide, expressed as a percentage of the reference compound values.
QUANTITY_MEASURED: Activity of NR2A with peptide, expressed as a percentage of the reference compound (%)

SUBSTANCE	UNIT_TEXT	RESULT
16 (GSQFCGTNGKPCVNGQCCGALRCVVTYHYADGVCLKMNP) [compound 16]	%	101
38 (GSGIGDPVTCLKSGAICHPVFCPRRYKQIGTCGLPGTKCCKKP) [compound 38]	%	100
15 (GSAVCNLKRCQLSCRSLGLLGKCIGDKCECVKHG) [compound 15]	%	97
32 (GSQDKCKKVYENYPVSKCQLANQCNYDCKLDKHARSGECFYDEKRNLQCICDYCEY) [compound 32]	%	95
30 (GSQVSTNKKCSNTSQCYKTCEKVVGVAAGKCMNGKCICYP) [compound 30]	%	111
17 (GSRPTDIKCSASYQCFPVCKSRFGKTNGRCVNGLCDCF) [compound 17]	%	83
14 (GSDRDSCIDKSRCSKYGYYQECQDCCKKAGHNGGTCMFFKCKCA) [compound 14]	%	107
19 (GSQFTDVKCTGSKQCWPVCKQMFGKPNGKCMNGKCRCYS) [compound 19]	%	90
2 (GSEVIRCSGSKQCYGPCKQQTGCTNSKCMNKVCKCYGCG) [compound 2]	%	102

====

Entries annotated with measured Activity of Kv1.2 with peptide, expressed as a percentage of the reference compound
- ASSAY_TARGET: Kv1.2 (Homo sapiens, UniProt P16389)
- Construct: host or cells: HEK293 or CHO
- Sequence (P16389 whole entry): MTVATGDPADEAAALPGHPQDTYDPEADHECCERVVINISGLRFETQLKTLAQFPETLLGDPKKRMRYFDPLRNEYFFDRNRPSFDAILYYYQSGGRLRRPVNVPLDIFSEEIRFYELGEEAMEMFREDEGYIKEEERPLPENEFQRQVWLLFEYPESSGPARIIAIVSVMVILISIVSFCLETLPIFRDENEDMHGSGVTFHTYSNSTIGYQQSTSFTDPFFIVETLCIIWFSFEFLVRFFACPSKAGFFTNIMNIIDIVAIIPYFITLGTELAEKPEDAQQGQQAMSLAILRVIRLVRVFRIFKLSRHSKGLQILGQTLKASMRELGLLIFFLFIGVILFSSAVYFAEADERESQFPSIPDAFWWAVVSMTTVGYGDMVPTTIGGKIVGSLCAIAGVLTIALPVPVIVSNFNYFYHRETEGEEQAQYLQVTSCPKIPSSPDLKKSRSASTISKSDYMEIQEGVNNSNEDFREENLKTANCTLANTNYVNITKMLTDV
- METHOD: cell-based
- Assay type: cell-based
- RECORDED_CONDITIONS: peptide at 0.2 μM; 100% = no change, <100% = inhibition
QUANTITY_MEASURED: Activity of Kv1.2 with peptide, expressed as a percentage of the reference compound

SUBSTANCE	ASSAY_TARGET	RESULT
12 (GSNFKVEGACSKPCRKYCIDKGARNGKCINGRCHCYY) [compound 12]	Kv1.2 (Homo sapiens, UniProt P16389)	88%
17 (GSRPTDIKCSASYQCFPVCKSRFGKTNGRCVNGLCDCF) [compound 17]	Kv1.2 (Homo sapiens, UniProt P16389)	97%
21 (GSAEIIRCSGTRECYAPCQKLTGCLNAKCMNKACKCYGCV) [compound 21]	Kv1.2 (Homo sapiens, UniProt P16389)	52%
32 (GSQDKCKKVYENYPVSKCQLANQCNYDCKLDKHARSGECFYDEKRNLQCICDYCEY) [compound 32]	Kv1.2 (Homo sapiens, UniProt P16389)	89%
16 (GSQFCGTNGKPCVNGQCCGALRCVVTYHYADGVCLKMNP) [compound 16]	Kv1.2 (Homo sapiens, UniProt P16389)	78%
23 (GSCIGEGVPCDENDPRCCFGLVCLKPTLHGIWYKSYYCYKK) [compound 23]	Kv1.2 (Homo sapiens, UniProt P16389)	83%
4 (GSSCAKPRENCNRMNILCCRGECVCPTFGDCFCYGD) [compound 4]	Kv1.2 (Homo sapiens, UniProt P16389)	90%
36 (GSAQEPVKGPVSTKPGSCPIILIRCAMLNPPNRCLKDTDCPGIKKCCEGSCGMACFVPQ) [compound 36]	Kv1.2 (Homo sapiens, UniProt P16389)	91%
38 (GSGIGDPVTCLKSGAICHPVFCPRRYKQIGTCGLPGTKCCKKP) [compound 38]	Kv1.2 (Homo sapiens, UniProt P16389)	100%
15 (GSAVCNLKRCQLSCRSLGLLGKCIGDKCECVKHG) [compound 15]	Kv1.2 (Homo sapiens, UniProt P16389)	77%
19 (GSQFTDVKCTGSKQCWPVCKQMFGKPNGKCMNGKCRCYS) [compound 19]	Kv1.2 (Homo sapiens, UniProt P16389)	41%
14 (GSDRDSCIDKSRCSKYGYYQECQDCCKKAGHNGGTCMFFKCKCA) [compound 14]	Kv1.2 (Homo sapiens, UniProt P16389)	73%
22 (GSSDYCSNDFCFFSCRRDRCARGDCENGKCVCKNCHLN) [compound 22]	Kv1.2 (Homo sapiens, UniProt P16389)	82%
30 (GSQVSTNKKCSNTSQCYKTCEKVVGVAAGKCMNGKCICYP) [compound 30]	Kv1.2 (Homo sapiens, UniProt P16389)	110%
20 (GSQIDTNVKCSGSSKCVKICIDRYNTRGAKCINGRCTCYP) [compound 20]	Kv1.2 (Homo sapiens, UniProt P16389)	115%
11 (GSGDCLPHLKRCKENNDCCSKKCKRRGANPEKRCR) [compound 11]	Kv1.2 (Homo sapiens, UniProt P16389)	103%
10 (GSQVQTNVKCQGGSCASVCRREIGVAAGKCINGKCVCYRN) [compound 10]	Kv1.2 (Homo sapiens, UniProt P16389)	135%
13 (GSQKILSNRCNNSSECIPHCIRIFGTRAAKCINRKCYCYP) [compound 13]	Kv1.2 (Homo sapiens, UniProt P16389)	88%

====

The entries below are paired with their reported Activity of hERG with peptide (percentage of the reference compound).
- ASSAY_TARGET: hERG (Homo sapiens, UniProt Q12809)
- METHOD: in vitro
- RECORDED_CONDITIONS: peptide at 20 μM; 100% = no change, <100% = inhibition
QUANTITY_MEASURED: Activity of hERG with peptide (percentage of the reference compound) (%)

SUBSTANCE	RESULT
4 (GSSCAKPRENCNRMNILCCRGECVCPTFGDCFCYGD) [compound 4]	80
30 (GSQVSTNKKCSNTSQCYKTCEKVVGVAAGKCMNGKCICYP) [compound 30]	95
13 (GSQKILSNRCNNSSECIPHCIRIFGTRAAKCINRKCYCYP) [compound 13]	67
17 (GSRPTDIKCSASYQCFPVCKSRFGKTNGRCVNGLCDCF) [compound 17]	8
34 (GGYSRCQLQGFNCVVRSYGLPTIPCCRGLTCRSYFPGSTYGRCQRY) [compound 34]	66
32 (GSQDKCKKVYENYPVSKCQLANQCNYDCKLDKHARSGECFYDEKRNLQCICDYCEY) [compound 32]	65
15 (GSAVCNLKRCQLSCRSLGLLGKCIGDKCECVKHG) [compound 15]	67
19 (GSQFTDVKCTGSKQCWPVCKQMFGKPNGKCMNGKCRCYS) [compound 19]	86
22 (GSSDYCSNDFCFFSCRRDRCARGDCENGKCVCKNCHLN) [compound 22]	79
20 (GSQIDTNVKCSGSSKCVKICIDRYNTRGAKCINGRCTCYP) [compound 20]	87
21 (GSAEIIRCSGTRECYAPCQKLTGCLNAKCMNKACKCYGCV) [compound 21]	72
3 (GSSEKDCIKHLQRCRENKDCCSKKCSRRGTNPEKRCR) [compound 3]	81
9 (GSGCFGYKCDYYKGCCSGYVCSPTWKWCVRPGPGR) [compound 9]	98
18 (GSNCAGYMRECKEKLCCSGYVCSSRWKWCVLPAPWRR) [compound 18]	62
26 (GSVVIGQRCYRSPDCYSACKKLVGKATGKCTNGRCDC) [compound 26]	74
6 (GSVRIPVSCKHSGQCLKPCKDAGMRFGKCMNGKCDCTPK) [compound 6]	71
38 (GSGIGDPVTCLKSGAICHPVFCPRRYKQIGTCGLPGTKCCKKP) [compound 38]	71
39 (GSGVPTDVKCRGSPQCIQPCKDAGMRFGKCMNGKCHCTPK) [compound 39]	84
12 (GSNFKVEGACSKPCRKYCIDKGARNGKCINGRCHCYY) [compound 12]	81
25 (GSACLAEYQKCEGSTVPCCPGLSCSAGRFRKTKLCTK) [compound 25]	79
11 (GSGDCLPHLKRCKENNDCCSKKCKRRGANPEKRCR) [compound 11]	99
24 (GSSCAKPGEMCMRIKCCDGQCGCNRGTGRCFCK) [compound 24]	78
14 (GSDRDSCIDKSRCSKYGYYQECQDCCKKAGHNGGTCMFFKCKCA) [compound 14]	1
29 (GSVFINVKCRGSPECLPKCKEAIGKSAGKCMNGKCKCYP) [compound 29]	78
10 (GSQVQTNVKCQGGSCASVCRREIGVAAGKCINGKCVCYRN) [compound 10]	80
5 (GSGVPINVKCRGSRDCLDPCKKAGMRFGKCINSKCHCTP) [compound 5]	67
2 (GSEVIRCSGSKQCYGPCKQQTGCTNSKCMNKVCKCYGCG) [compound 2]	76
36 (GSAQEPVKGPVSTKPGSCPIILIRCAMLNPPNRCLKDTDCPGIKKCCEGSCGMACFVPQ) [compound 36]	65
27 (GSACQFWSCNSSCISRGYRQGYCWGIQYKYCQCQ) [compound 27]	75
16 (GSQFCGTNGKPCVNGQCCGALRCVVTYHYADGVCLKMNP) [compound 16]	71
23 (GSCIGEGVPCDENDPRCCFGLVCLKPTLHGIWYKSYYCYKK) [compound 23]	78
